target: Cathepsin S (UniProt P25774); test: Cathepsin enzyme inhibition assay (fluorogenic peptide substrate Z-Val-Val-Arg-AMC), Cathepsin S; type: biochemical, human and mouse; settings: enzyme 1 nM, substrate 20 μM, pH 6.5; read-out: CatS IC50
pIC50: −log10 of the molar value. Where a name gives a salt, the structure may show the parent alone.
endpoint_label: pIC50

[[record]]
molecule = "CC1(C(=O)N2C[C@H](S(=O)(=O)c3ccccc3C(F)(F)F)C[C@H]2C(=O)NC2(C#N)CC2)CC1"
target_of_assay = "Cathepsin S (UniProt P25774)"
endpoint_value = 9.52

[[record]]
molecule = "Cc1ccc(S(=O)(=O)[C@H]2CN[C@H](C(=O)NC3(C#N)CC3)C2)c(C)c1 [Example 49, Hydrochloride]"
target_of_assay = "Cathepsin S (UniProt P25774)"
endpoint_value = 8.74

[[record]]
molecule = "Cc1cc(N2C[C@H](S(=O)(=O)c3ccccc3Cl)C[C@H]2C(=O)NC2(C#N)CC2)n(Cc2cncn2C)n1"
target_of_assay = "Cathepsin S (UniProt P25774)"
endpoint_value = 8.18

[[record]]
molecule = "N#CC1(NC(=O)[C@@H]2C[C@@H](S(=O)(=O)c3ccccc3)CN2C(=O)C2(c3ccc(Cl)cc3)CC2)CC1"
target_of_assay = "Cathepsin S (UniProt P25774)"
endpoint_value = 4.47


----------
target: UniProtKB P07711; test: Cathepsin enzyme inhibition assay (fluorogenic peptide substrate Z-Val-Val-Arg-AMC), Cathepsin L; assay type: biochemical, human and mouse; details: enzyme 1 nM, substrate 20 μM, pH 6.5; read-out: CatL IC50
Counter-ions that a name gives are not always drawn.
endpoint_label: IC50

[[record]]
compound = "CC1(C(=O)N2C[C@H](S(=O)(=O)c3ccc(F)cc3C(F)(F)F)C[C@H]2C(=O)NC2(C#N)CC2)CC1"
endpoint_value = "≥ 25 µM"

[[record]]
compound = "N#CC1(NC(=O)[C@@H]2C[C@@H](S(=O)(=O)c3ccc(F)cc3Cl)CN2)CC1"
endpoint_value = "28.2 µM"

[[record]]
compound = "N#CC1(NC(=O)[C@@H]2C[C@@H](S(=O)(=O)c3ccccc3CO)CN2)CC1 [Example 12, Hydrochloride]"
endpoint_value = "42.2 µM"

[[record]]
compound = "CC(C)OC(=O)N1C[C@H](S(=O)(=O)c2ccccc2Cl)C[C@H]1C(=O)NC1(C#N)CC1"
endpoint_value = "22.8 µM"

[[record]]
compound = "CC(C)(C(=O)N1C[C@H](S(=O)(=O)c2ccccc2Cl)C[C@H]1C(=O)NC1(C#N)CC1)c1ccc(Cl)cc1"
endpoint_value = "0.27 µM"

[[record]]
compound = "N#CC1(NC(=O)[C@@H]2C[C@@H](S(=O)(=O)c3ccccc3C(F)(F)F)CN2C(=O)C2CCC(C(F)(F)F)CC2)CC1 (some centres unmarked)"
endpoint_value = "≥ 25 µM"

[[record]]
compound = "N#CC1(NC(=O)[C@@H]2C[C@@H](S(=O)(=O)c3ccc(N4CCN(C5CC5)CC4)cc3Cl)CN2C(=O)C2(C(F)(F)F)CC2)CC1"
endpoint_value = "1.58 µM"

[[record]]
compound = "Cc1cc(-n2nc(C)cc2N2C[C@H](S(=O)(=O)c3ccccc3C(F)(F)F)C[C@H]2C(=O)NC2(C#N)CC2)cc(C)n1"
endpoint_value = "≥ 25 µM"

[[record]]
compound = "CC(C)N1CCN(c2ccc(S(=O)(=O)[C@@H]3C[C@@H](C(=O)NC4(C#N)CC4)N(C(=O)C4(C(F)(F)F)CC4)C3)c(Cl)c2)CC1"
endpoint_value = "1.4 µM"

[[record]]
compound = "N#CCNC(=O)[C@@H]1C[C@@H](S(=O)(=O)c2ccccc2Cl)CN1C(=O)c1ccc(F)cc1"
endpoint_value = "12.2 µM"

[[record]]
compound = "CC(C)CS(=O)(=O)[C@@H]1C[C@@H](C(=O)NC2(C#N)CC2)N(C(=O)OC(C)(C)C)C1"
endpoint_value = "≥ 25 µM"

[[record]]
compound = "CC(Oc1ccc(S(=O)(=O)[C@@H]2C[C@@H](C(=O)NC3(C#N)CC3)N(C(=O)OC(C)(C)C)C2)c(Cl)c1)C(F)(F)F (some centres unmarked)"
endpoint_value = "23.8 µM"

[[record]]
compound = "CC(C)C[C@]1(C(=O)NC2(C#N)CC2)C[C@H](S(=O)(=O)c2ccccc2)[C@@H](c2ccc(F)cc2)N1"
endpoint_value = "≥ 25 µM"

[[record]]
compound = "N#CC1(NC(=O)[C@@H]2C[C@@H](S(=O)(=O)c3ccccc3Cl)CN2C(=O)c2ccccc2)CC1"
endpoint_value = "6.79 µM"

[[record]]
compound = "Cc1cc(N2C[C@H](S(=O)(=O)c3ccccc3C(F)(F)F)C[C@@H]2C(=O)NC2(C#N)CC2)n(CC(C)C)n1"
endpoint_value = "≥ 25 µM"

[[record]]
compound = "N#CC1(NC(=O)[C@@H]2C[C@@H](S(=O)(=O)c3ccc(Cl)cc3Cl)CN2C(=O)C2(c3ccc(Cl)cc3)CC2)CC1"
endpoint_value = "0.045 µM"

[[record]]
compound = "N#CC1(NC(=O)[C@@H]2C[C@@H](S(=O)(=O)c3ccc(F)cc3Cl)CN2C(=O)C2(C(F)(F)F)CC2)CC1"
endpoint_value = "11.8 µM"

[[record]]
compound = "N#CC1(NC(=O)[C@@H]2C[C@@H](S(=O)(=O)c3ccccc3Cl)CN2C(=O)C2(c3ccc(Cl)cc3)CCC2)CC1"
endpoint_value = "0.024 µM"

[[record]]
compound = "Cc1cc(N2C[C@H](S(C)(=O)=O)C[C@H]2C(=O)NC2(C#N)CC2)n(-c2ccnc(Cl)c2)n1"
endpoint_value = "> 25 µM"

[[record]]
compound = "N#CC1(NC(=O)[C@@H]2C[C@@H](S(=O)(=O)c3ccccc3Cl)CN2C2CCC2)CC1"
endpoint_value = "≥ 25 µM"

[[record]]
compound = "N#CC1(NC(=O)[C@@H]2C[C@@H](S(=O)(=O)c3ccc(N4CCC4)cc3Cl)CN2C(=O)C2(c3ccc(Cl)cc3)CC2)CC1"
endpoint_value = "0.13 µM"

[[record]]
compound = "Cc1cc(N2C[C@H](S(=O)(=O)c3ccc(OCC(F)(F)F)cc3Cl)C[C@H]2C(=O)NC2(C#N)CC2)n(CCc2ccccc2)n1"
endpoint_value = "1.55 µM"

[[record]]
compound = "N#CC1(NC(=O)C2C[C@@H](S(=O)(=O)c3ccc(OCC(F)(F)F)cc3Cl)CN2C=O)CC1 (some centres unmarked)"
endpoint_value = "≥ 25 µM"

[[record]]
compound = "N#CC1(NC(=O)[C@@H]2C[C@@H](S(=O)(=O)c3ccc(-n4ccnc4)cc3Cl)CN2C(=O)C2(c3ccc(Cl)nc3)CC2)CC1"
endpoint_value = "0.068 µM"

[[record]]
compound = "N#CC1(NC(=O)[C@@H]2C[C@@H](S(=O)(=O)c3ccc(-n4cnc5cnccc54)cc3Cl)CN2C(=O)C2(c3ccc(Cl)cc3)CC2)CC1"
endpoint_value = "0.22 µM"

[[record]]
compound = "Cc1cc(N2C[C@H](S(=O)(=O)c3ccccc3)C[C@H]2C(=O)NC2(C#N)CC2)n(-c2ccc(C(F)(F)F)cc2)n1"
endpoint_value = "27 µM"

